Where these numbers come from: patent US9994881B2

The following molecules are listed with their measured Specific activities of selected thioesterases on Acetyl-CoA values.
Assay: thioesterase activity (production of TNB at 412 nm)
Type: biochemical
Conditions: crude cell extract; 200 μM substrate; expressed from pCA24N
State the answer as a number, implicitly in μmol/mg protein/min.

Sample records with Specific activities of selected thioesterases on Acetyl-CoA:
[
  {
    "MOLECULE": "FadM: E. coli long-chain acyl-CoA thioesterase (protein, UniProt P77712 1-132, looked up) Long-chain acyl-CoA …: MQTQIKVRGYHLDVYQHVNNARYLEFLEEARWDGLENSDSFQWMTAHNIAFVVVNININYRRPAVLSDLLTITSQLQQLNGKSGILSQVITLEPEGQVVADALITFVCIDLKTQKALALEGELREKLEQMVK",
    "TEST_VALUE": 0.0331
  },
  {
    "MOLECULE": "TesB: E. coli thioesterase II (protein, UniProt P0AGG2 2-286, looked up) Acyl-CoA thioesterase 2: SQALKNLLTLLNLEKIEEGLFRGQSEDLGLRQVFGGQVVGQALYAAKETVPEERLVHSFHSYFLRPGDSKKPIIYDVETLRDGNSFSARRVAAIQNGKPIFYMTASFQAPEAGFEHQKTMPSAPAPDGLPSETQIAQSLAHLLPPVLKDKFICDRPLEVRPVEFHNPLKGHVAEPHRQVWIRANGSVPDDLRVHQYLLGYASDLNFLPVALQPHGIGFLEPGIQIATIDHSMWFHRPFNLNEWLLYSVESTSASSARGFVRGEFYTQDGVLVASTVQEGVMRNHN",
    "TEST_VALUE": 0.030
  }
]

Read the next record carefully.
I would be grateful if you could share the reported Specific activities of selected thioesterases on Acetyl-CoA for YbgC: E. coli Acyl-CoA thioesterase (protein, UniProt P0A8Z3 1-134, looked up) Acyl-CoA thioester hydrolase …: MNTTLFRWPVRVYYEDTDAGGVVYHASYVAFYERARTEMLRHHHFSQQALMAERVAFVVRKMTVEYYAPARLDDMLEIQTEITSMRGTSLVFTQRIVNAENTLLNEAEVLVVCVDPLKMKPRALPKSIVAEFKQ . 0.036
